B1: CFHR2 (parent)
chain: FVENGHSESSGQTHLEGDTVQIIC

Variants of: B1
Protocol Details: protein stability index of a GFP-peptide fusion (GPS, HEK-293T) (PSI 1-6); higher = more stable;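 note: lentivirally expressed fusions sorted by FACS into six bins by GFP to DsRed ratio, PSI derived from sequencing read proportions per bin multiplied by bin number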
Applied Conditions: c terminus: a fixed tail appended
Listed here: items and their measured protein stability index.

These recorded examples may help you get a feel for the data.
{"columns": ["Mutation Id", "protein stability index"],
 "data": [
  ["G17T", 2.91],
  ["T13D", 3.43],
  ["S9Y", 1.66],
  ["I22C", 3.17],
  ["S10Y", 1.94]
]}

Exam item: What does the data say about its protein stability index? Entry: `N4F`
Marked response: 1.83

Exam item: protein stability index for `L15M` ?
Marked response: 3.13

Exam item: Which protein stability index reading was recorded for the variant `E3D` ?
Marked response: 1.74

Exam item: Please look up its protein stability index: `I23F`
Marked response: 2.1

Exam item: Fill in the blank: the reported protein stability index of `Q12A` is ____.
Marked response: 2.43

Exam item: Could you tell me which protein stability index is on file for `S10T` ?
Marked response: 2.73

Exam item: # input variant: `G5N` ; wanted: its protein stability index
Marked response: 3.23

Exam item: Look up protein stability index: `C24T`
Marked response: 3.61
